- test system: recombinant human cGAS (aa147-522) (Homo sapiens, UniProt Q8N884)
- Construct: recombinant human cGAS (aa147-522); His6-SUMO (cleaved yes); made in house; host or cells: E. coli BL21/pLys
- Sequence (Q8N884 147-522): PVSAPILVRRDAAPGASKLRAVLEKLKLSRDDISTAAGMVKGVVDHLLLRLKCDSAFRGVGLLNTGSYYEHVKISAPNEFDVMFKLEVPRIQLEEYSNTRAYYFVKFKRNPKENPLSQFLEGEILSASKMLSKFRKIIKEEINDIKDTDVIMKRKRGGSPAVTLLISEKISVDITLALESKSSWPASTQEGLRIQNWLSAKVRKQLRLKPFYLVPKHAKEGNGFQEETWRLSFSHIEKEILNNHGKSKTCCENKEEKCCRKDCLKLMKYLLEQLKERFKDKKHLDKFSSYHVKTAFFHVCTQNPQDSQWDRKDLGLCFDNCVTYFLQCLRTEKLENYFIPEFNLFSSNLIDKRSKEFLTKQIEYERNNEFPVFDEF
- assay text: In vitro inhibition assay of cGAS activity (ATP consumption, KinaseGlo Max)
- Type: biochemical
- condition parameters: Table 3, read-out: cGAS Inhibition Results IC50
- Method: Expression and Purification of Recombinant cGAS Protein: cDNA encoding full-length or amino acids […] of human cGAS was inserted into a modified pET28a vector containing an in-frame His6-SUMO tag. The E. coli strain BL21/pLys harboring the plasmid was induced with 0.5 mM IPTG at 18° C. overnight. His6-SUMO tag was removed by a SUMO protease digestion following purification of the His6-SUMO-cGAS as described previously (Sun et al, 2013, Science 339, 786). […]
metric: IC50

[Q] If you can, please state the reported IC50 value of "NC(=O)C[C@@H]1CCCN1c1cc(-n2ccnc2)c2ccc(Cl)c(Cl)c2n1" .
[A] < 2000 nM

[Q] If you can, please state the reported IC50 value of "COC(=O)[C@@H]1[C@@H](O)CCN1c1cc(-n2ccnc2)c2ccc(Cl)c(Br)c2n1" .
[A] 2000 to 30000 nM

[Q] If you can, please state the reported IC50 value of "O=C(O)CNC(=O)C[C@@H]1[C@@H](O)CCN1c1cc(-n2ccnc2)c2ccc(Cl)c(Cl)c2n1" .
[A] < 2000 nM

[Q] If you can, please state the reported IC50 value of "O=C(O)CCOC[C@@H]1CCCN1c1cc(-n2ccnc2)c2ccc(Cl)c(Br)c2n1" .
[A] < 2000 nM

Quick request: IC50 for each listed item, please.
1. CN(CCN(Cc1cccc(C(=O)O)c1)S(C)(=O)=O)c1cc(-n2ccnc2)c2ccc(Cl)c(Cl)c2n1
2. O=C(O)COC[C@@H](O)[C@@H]1CCCN1c1cc(-n2ccnc2)c2ccc(Cl)c(Cl)c2n1
3. O=C(O)Cc1csc(CNc2cc(-n3ccnc3)c3ccc(Cl)c(Cl)c3n2)n1

[A]
1: < 2000 nM; 2: < 2000 nM; 3: < 2000 nM

Quick request: IC50 for each listed item, please.
1. COC(=O)COCC[C@@H]1CCCN1c1cc(-n2ccnc2)c2ccc(Cl)c(Cl)c2n1
2. CC(C)(O)[C@@H]1CCCN1c1cc(-n2ccnc2)c2ccc(Cl)c(Cl)c2n1
3. O=C(O)CCOC[C@@H]1C[C@@H]2CCCC[C@@H]2N1c1cc(-n2ccnc2)c2ccc(Cl)c(Cl)c2n1
4. O=C(O)CCOC[C@@H]1CCCN(c2cc(-c3cn[nH]c3)c3ccc(Cl)c(Cl)c3n2)C1
5. OC1CC2CCCC(C1)N2c1cc(-n2ccnc2)c2ccc(Cl)c(Cl)c2n1 (centres unmarked)
6. COC(=O)[C@@H]1CC[C@H](C)N1c1cc(-n2ccnc2)c2ccc(Cl)c(Cl)c2n1

[A]
1: 2000 to 30000 nM; 2: 2000 to 30000 nM; 3: < 2000 nM; 4: < 2000 nM; 5: 2000 to 30000 nM; 6: 2000 to 30000 nM

Quick request: IC50 for each listed item, please.
1. CN(CCOc1cccc(CC(=O)O)c1)c1cc(-n2ccnc2)c2ccc(Cl)c(Cl)c2n1
2. COC(=O)C1CCCN(C(=O)C[C@@H]2CCCN2c2cc(-n3ccnc3)c3ccc(Cl)c(Cl)c3n2)C1 (some centres unmarked)

[A]
["< 2000 nM", "2000 to 30000 nM"]

Quick request: IC50 for each listed item, please.
1. COC(=O)CCN(C)C[C@@H]1CCCN1c1cc(-n2ccnc2)c2ccc(Cl)c(Cl)c2n1
2. COC(=O)CCOC[C@@H]1CCCN1c1cc(-c2cn[nH]c2)c2ccc(Cl)c(Cl)c2n1

[A]
["> 30000 nM", "< 2000 nM"]
